Provenance of the data: ChEMBL document CHEMBL3297727

Target: Induced myeloid leukemia cell differentiation protein Mcl-1 (Homo sapiens)
Sequence (Q07820 whole entry): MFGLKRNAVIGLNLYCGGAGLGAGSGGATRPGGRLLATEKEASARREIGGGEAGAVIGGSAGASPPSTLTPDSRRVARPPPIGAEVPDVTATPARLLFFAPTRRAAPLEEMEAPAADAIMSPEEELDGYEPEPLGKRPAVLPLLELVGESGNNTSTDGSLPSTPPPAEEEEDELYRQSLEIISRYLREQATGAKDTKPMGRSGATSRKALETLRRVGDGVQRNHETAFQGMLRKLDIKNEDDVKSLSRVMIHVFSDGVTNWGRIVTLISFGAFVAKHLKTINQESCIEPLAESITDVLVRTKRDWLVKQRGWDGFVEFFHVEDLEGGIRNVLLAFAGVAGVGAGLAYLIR
Experiment: Displacement of fluorescein-labeled BID from His-tagged MCL-1 (unknown origin) after 1 hr by fluorescence polarization assay
Ki values, listed per item
Entry rule: numbers only, all in µM.

Solved cases below.
In [3]: df
Out[3]:
                                   compound                            assayed_target  readout_units  quantitative_result
0  O=C(O)[C@@H]1C=C[C@@H]2C[C@H]3[C@H](CCCCCCCc4ccc(O)cc4)[C@H]4C=C[C@@H]1[C@@H]2[C@H]43 (relative stereo)  Induced myeloid leukemia cell differentiation protein Mcl-1 (Homo sapiens)             µM                   13
1  O=C(O)[C@@H]1C=C[C@@H]2C[C@H]3[C@H](CCCCCc4ccc(O)cc4)[C@H]4C=C[C@@H]1[C@@H]2[C@H]43 (relative stereo)  Induced myeloid leukemia cell differentiation protein Mcl-1 (Homo sapiens)             µM                   14

Please turn your attention to the following entry.
What does the record list as Ki for O=C(O)[C@@H]1C=C[C@@H]2C[C@H]3[C@H](CCCc4ccc(O)c(O)c4)[C@H]4C=C[C@@H]1[C@@H]2[C@H]43 (relative stereo) ?
5.2
